system: human TTR gene; experiment: Base editing in primary human hepatocytes co-transfected with gRNA and ABE8.8 mRNA, NGS; type: cell-based; settings: 2500 ng/RNA/mL, rep 2, 3 days after transfection
parameter measured: Human hepatocytes- Editing % 2500, rep 2 (%)
# unit: % | format: bare number

* GA461: guide RNA, human/cyno TTR, protospacer TACTCACCTCTGCATGCTCA (SEQ ID NO: 27), gRNA SEQ ID NO: 15 (nucleic acid, chemistry not given here) guide: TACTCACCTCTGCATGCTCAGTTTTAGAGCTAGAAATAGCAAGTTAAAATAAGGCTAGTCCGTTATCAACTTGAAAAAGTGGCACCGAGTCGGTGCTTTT | 39.43
* GA459: guide RNA, human TTR, protospacer GCAACTTACCCAGAGGCAAA (SEQ ID NO: 25), gRNA SEQ ID NO: 13 (nucleic acid, chemistry not given here) guide: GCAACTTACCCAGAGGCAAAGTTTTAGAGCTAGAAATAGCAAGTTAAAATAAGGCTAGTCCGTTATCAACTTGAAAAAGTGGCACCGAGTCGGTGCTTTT | 8.69
* GA457: guide RNA, human TTR, protospacer GCCATCCTGCCAAGAATGAG (SEQ ID NO: 24), gRNA SEQ ID NO: 11 (nucleic acid, chemistry not given here) guide: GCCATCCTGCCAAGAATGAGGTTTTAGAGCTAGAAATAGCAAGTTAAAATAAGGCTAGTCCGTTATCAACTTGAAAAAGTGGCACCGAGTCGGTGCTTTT | 31.31

Inquiry: Look at this molecule and give its reported Human hepatocytes- Editing % 2500, rep 2. GA460: guide RNA, human/cyno TTR, protospacer TATAGGAAAACCAGTGAGTC (SEQ ID NO: 26), gRNA SEQ ID NO: 14 (nucleic acid, chemistry not given here) guide: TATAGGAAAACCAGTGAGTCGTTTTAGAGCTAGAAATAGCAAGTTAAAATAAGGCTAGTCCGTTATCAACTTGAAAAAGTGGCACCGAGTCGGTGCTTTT
Reply text: 47.79
